Data origin, for the record: patent US10220024B2

Entries annotated with measured activity at 10 µg/mL
System: K562 ALDH (+) fraction (cancer stem cells)
Assay: Cancer stem-cell selective inhibitory action against chronic myelocytic leukemia cells, ALDH (+) fraction, CellTiter-Glo
Assay type: cell-based
Settings: Homo sapiens, 10 μg/ml, 24 hours, read-out: Growth suppression evaluated

{"columns": ["Compound", "Target Desc", "activity at 10 µg/mL"],
 "data": [
  ["O=C(O)Cn1c(=O)/c(=C\\c2ccc3c(c2)C2CCCC2N3c2ccccc2)s/c1=C1/SC(=S)N(Cc2ccccc2)C1=O (stereo not shown) [compound 5, reference compound]", "K562 ALDH (+) fraction (cancer stem cells)", "≥ 95%"],
  ["CCn1c2ccccc2c2cc(/C=C/C3=[N+](C)c4ccc5ccccc5c4C3(C)C)ccc21", "K562 ALDH (+) fraction (cancer stem cells)", "< 50%"],
  ["CCN1c2ccc(/C=C/C3=[N+](C)c4ccc5ccccc5c4C3(C)C)cc2C2CCCC21 (stereo not shown)", "K562 ALDH (+) fraction (cancer stem cells)", "< 50%"],
  ["CCn1c2ccccc2c2cc(/C=c3/s/c(=C\\C4=[N+](CC)c5ccccc5C4(C)C)n(CC(=O)O)c3=O)ccc21", "K562 ALDH (+) fraction (cancer stem cells)", "< 50%"],
  ["COc1ccc(N2c3ccc(/C=C/C4=[N+](CCC(=O)O)c5ccccc5C4(C)C)cc3C3CCCC32)cc1 (stereo not shown)", "K562 ALDH (+) fraction (cancer stem cells)", "50 to 95%"],
  ["COc1ccc(N2c3ccc(/C=C/c4sc5ccccc5[n+]4CC(=O)O)cc3C3CCCC32)cc1 (stereo not shown)", "K562 ALDH (+) fraction (cancer stem cells)", "50 to 95%"],
  ["CCN1c2ccc(/C=C/C3=[N+](CC)c4ccc(OC)cc4C34CCCCC4)cc2C2CCCC21 (stereo not shown)", "K562 ALDH (+) fraction (cancer stem cells)", "< 50%"]
]}
